assay: Thermodynamic solubility of the compound in buffer containing 20 mmol/L of sodium taurocholate at pH 6.8; format: physicochemical; details: buffer containing 20 mmol/L sodium taurocholate, read-out: Therm_solubility
Assay endpoint: solubility thermodynamic (µg/mL)

# Compound structure string, solubility thermodynamic [µg/mL]
data = [
    ("O=C(NC1CC1)c1ccc(-c2cnc3c(NCC4CCOCC4)cc(OC4CCCCC4)nn23)cc1", 10),
    ("O=C(NC1CC1)c1ccc(-c2cnc3c(NCC4CCOCC4)cc(Oc4ccccc4O)nn23)cc1", 1.3),
    ("CC(C)(Nc1cc(NCC2CCOCC2)c2ncc(-c3ccc(C(=O)NC4CC4)cc3)n2n1)C(F)(F)F", 29),
]

I: CC(C)(C)Nc1cc(NCC2CCOCC2)c2ncc(-c3ccc(C(=O)NC4CC4)cc3)n2n1
II: N#Cc1ccc(-c2cn3c(-c4ccc(C(=O)NC5CC5)cc4)cnc3c(NCC3CCOCC3)n2)cc1
III: N#Cc1ccc(-c2cc(NCC3CCOCC3)c3ncc(-c4ccc(C(=O)NC5CC5)cc4)n3n2)cc1
IV: O=C(NC1CC1)c1ccc(-c2cnc3c(NCC4CCOCC4)cc(Oc4ccccc4F)nn23)cc1
V: N#Cc1ccc(-c2cc(NCC3CCOCC3)c3ncc(-c4ccc(C(=O)NC5CC5)cc4)n3n2)c(N)c1
Task: # rank_down: sort by solubility thermodynamic, max first Give your ranking as a list of the labels in the requested order.
Result: I, IV, V, II, III
